# EXPERIMENT_NOTES: qHTS assay to identify small molecule antagonists of the estrogen receptor beta (ER-beta) signaling pathway - cell viability counter screen (AID 1259382); note: nearly all actives have a fitted effect of over 55% in size
# MEASUREMENT_CONDITIONS: ER-beta-UAS-bla HEK293T viability, CellTiter-Glo luminescence, 16 h; series mostly up to 92.4 µM
Results filed as inconclusive are left out. Active and inactive are the calls of the source. Calls come from the whole dose curve; as a rule, active = well fitted cell-killing curve with a large enough effect in the repeat runs; inconclusive = weak or mixed curves; inactive = flat fitted curve, though single readings scatter.
Respond only with the outcome that fits, drawn from TRUE (active), FALSE (inactive)

Q. For this compound, state the assay outcome: ON(Cc1ccccc1)Cc1ccccc1
A. FALSE

Q. Tell me the assay call for CCN(CC)CCNC(=O)c1ccc(NC(C)=O)cc1 please.
A. FALSE

Q. Recorded test outcome, item C[C@@H]1C[C@H]2[C@@H]3CCC4=CC(=O)C=C[C@]4(C)[C@@]3(F)[C@@H](O)C[C@]2(C)[C@H]1C(=O)CO
A. FALSE

Q. # fetch the recorded call for O=C(O)c1cccnc1C(=O)O here
A. FALSE

Q. Short answer needed: outcome of this test for COCC(O)CO (stereo not given) ?
A. FALSE

Q. How was CC(C)C(OC(=O)c1ccccc1)C(C)(C)COC(=O)c1ccccc1 (stereo not given) classified in this test?
A. FALSE

Q. Kindly provide the recorded test outcome for the following compound: CCc1cccc(N(C)C(N)=Nc2cccc3ccccc23)c1
A. FALSE

Q. What did the test return for CC1=C(C=O)C(C)(C)CCC1 ?
A. FALSE

Q. What did this assay record as the result for C=CCOC(=O)/C=C\C(=O)OCC=C ?
A. FALSE

Q. Fill in: this test's call for CC#N is ___
A. FALSE

Q. Test call for this compound, please: CCCCCCCCCOC(C)=O
A. FALSE

Q. // param item: COc1ccc([C@@H]2Sc3ccccc3NC(=O)[C@@H]2O)cc1 ; yields the recorded call
A. FALSE

Q. # fetch the recorded call for NC(=O)N(O)[C@@H]1COc2cc(OCc3ccccc3)ccc21 here
A. FALSE

Q. What was the test verdict on O=C1NCCN1 ?
A. FALSE

Q. Please state the recorded outcome for this compound: COC(=O)Nc1nc2ccc(C(=O)c3cccs3)cc2[nH]1
A. FALSE

Q. Called result for CCC(=O)Oc1ccc(/C(CC)=C(\CC)c2ccc(OC(=O)CC)cc2)cc1
A. FALSE

Q. For this compound, state the assay outcome: CC[C@@H]([C@H](C)O)n1ncn(-c2ccc(N3CCN(c4ccc(OC[C@@H]5CO[C@@](Cn6cncn6)(c6ccc(F)cc6F)C5)cc4)CC3)cc2)c1=O
A. TRUE

Q. In this assay, the call recorded for CC(CCO)CCc1ccccc1 (stereo not given) was what?
A. FALSE

Q. Look up the recorded call for CC(=N\O)/C(C)=N/O in this test.
A. FALSE

Q. Dear colleague, could you share the recorded outcome for Cc1cc(C(=C2C=CC(=Nc3ccc(S(=O)(=O)O)cc3S(=O)(=O)O)C=C2)c2ccc(Nc3ccc(S(=O)(=O)O)cc3)cc2)ccc1N when you have a moment?
A. FALSE

Q. Could you please tell me the result logged for CC1(C)C(=O)N(Br)C(=O)N1Cl in this assay?
A. FALSE

Q. Outcome logged for O=C(OCCOCCO)c1ccccc1Nc1cccc(C(F)(F)F)c1 in this assay:
A. FALSE

Q. # fetch the recorded call for Cc1ccc(Nc2nccc(N(C)c3ccc4c(C)n(C)nc4c3)n2)cc1S(N)(=O)=O here
A. FALSE

Q. So what was the verdict on O=c1[nH]c2ccc(S(=O)CCN3CCC(Cc4ccc(F)cc4)CC3)cc2o1 (stereo not given) in this test?
A. FALSE

Q. Each compound tested received a call. Report the one for CC(Cl)C(Cl)Cl (stereo not given) .
A. FALSE

---

# EXPERIMENT_NOTES: Caspase-3/7 induction in HepG2 cells by small molecules, qHTS cell viability counter screen (AID 1346981); note: nearly all actives have a fitted effect of over 30% in size
# MEASUREMENT_CONDITIONS: CellTiter-Fluor fluorescence, 17 h; series mostly up to 92.4 µM
# From the text: U.S. Tox21 Program National Center for Advancing Translational Sciences [NCATS] NIH Chemical Genomics Center [NCGC] U.S. Environmental Protection Agency [EPA] National Institutes of Environmental Health Sciences [NIEHS] National Toxicology Program [NTP] U.S. Food and Drug Administration [FDA] Tox21 Assay Overview: Apoptosis is a process of programmed cell death and plays a central role in the development of multicellular organisms. […]
Results filed as inconclusive are left out. Activity calls are given as the source filed them. The call rests on the fitted dose curve; in most records, active means well fitted cell-killing curve with a large enough effect in the repeat runs; inconclusive means weak or mixed curves, or effect the other way; inactive means flat fitted curve, though single readings scatter.
// allowed return values: active, inactive

Q. Status in this test for O=C(Nc1ccccc1)Nc1ccccc1 ?
A. inactive

Q. Given CCC(C)(O)CCC=C(C)C (stereo not given) , state the outcome it received in this test.
A. inactive

Q. Which outcome did this test record for the molecule C(=C\c1ccccc1)/CN1CCN(C(c2ccccc2)c2ccccc2)CC1 ?
A. inactive

Q. In this assay, the call recorded for CO[C@@]12[C@H](COC(N)=O)C3=C(C(=O)C(C)=C(N)C3=O)N1C[C@@H]1N[C@@H]12 was what?
A. active

Q. How did this test come out for CC(C)(O)c1ccccc1CC[C@@H](SCC1(CC(=O)O)CC1)c1cccc(/C=C/c2ccc3ccc(Cl)cc3n2)c1 ?
A. inactive

---

# EXPERIMENT_NOTES: A CellTox Green Cytotoxicity Assay to monitor cytotoxicity in HepG2 cells - 24 hour (AID 1224878); note: nearly all actives have a fitted effect of over 45% in size
# MEASUREMENT_CONDITIONS: CellTox Green fluorescence; series mostly up to 76.8 µM
Results filed as inconclusive are left out. Active and inactive are the calls of the source. Calls come from the whole dose curve; as a rule, active = well fitted activation curve with a large enough effect in the repeat runs; inconclusive = weak or mixed curves; inactive = flat fitted curve, though single readings scatter.
Parameter call: string, one of label 1 (active), label 0 (inactive)

Q. Recorded test call requested for CCOC(=O)OCC
A. label 0

Q. Please state the recorded outcome for this molecule: CC(=O)OCC(=O)[C@H]1CC[C@H]2[C@@H]3CCC4=CC(=O)CC[C@]4(C)[C@H]3CC[C@]12C
A. label 0

Q. Assay result, entry CCN(CC)CCNC(=O)c1ccc(NC(C)=O)cc1 — outcome?
A. label 0

Q. In this assay, the call recorded for Cc1cc(O)c(C(C)C)cc1Cl was what?
A. label 1

Q. Which outcome was entered for the molecule CC(C)(C)C(=O)C(Oc1ccc(Cl)cc1)n1ccnc1 (stereo not given) in this test?
A. label 0

Q. Tell me the assay call for O=C(O)c1cccc(O)c1 please.
A. label 0

Q. Tell me the assay call for COC(OC)(C(=O)c1ccccc1)c1ccccc1 please.
A. label 0

Q. # lookup: test call for O=c1[nH]c2ccc(S(=O)CCN3CCC(Cc4ccc(F)cc4)CC3)cc2o1 (stereo not given)
A. label 0

Q. Returns: the outcome recorded for Cc1occc1C(=O)Nc1ccc(C(=O)N2CCC(F)(F)/C(=C\C(=O)N3CCC(N4CCCCC4)CC3)c3ccccc32)cc1 in this assay.
A. label 0

Q. Per the records of this test, what outcome belongs to CC(C)C(=O)O ?
A. label 0

Q. Assay result, entry O=C(N/N=C/c1ccc([N+](=O)[O-])o1)c1ccc(O)cc1 — outcome?
A. label 0

Q. Assay outcome for CC(C)OCC1CO1 (stereo not given) : what was it?
A. label 0

Q. Entry Cc1nc2ccccc2s1 : call = ?
A. label 0

Q. # outcome recorded in this test, key = CCOc1cc(N)c(Cl)cc1C(=O)NCC1CN(Cc2ccc(F)cc2)CCO1 (stereo not given)
A. label 0

Q. Tell me the recorded outcome of this test for C/C(=N/NC(=O)c1ccncc1)C(=O)O .
A. label 0

Q. What call does the record list for Cc1ccc(S)cc1 ?
A. label 1

Q. Could you check what this test reported for CCCCC(=O)O[C@]1(C(=O)CO)CC[C@H]2[C@@H]3CCC4=CC(=O)CC[C@]4(C)[C@H]3[C@@H](O)C[C@@]21C ?
A. label 0

Q. So what was the verdict on O=[N+]([O-])c1cccc(S(=O)(=O)NCCNS(=O)(=O)c2cccc([N+](=O)[O-])c2)c1 in this test?
A. label 0

Q. // return assay outcome for CC(C)(O)c1ccccc1CC[C@@H](SCC1(CC(=O)O)CC1)c1cccc(/C=C/c2ccc3ccc(Cl)cc3n2)c1
A. label 0

Q. Recorded call for C[N+](C)(C)CCOC(N)=O ?
A. label 0

Q. Which result was noted for this molecule in the test: CC(C)C(OC(=O)c1ccccc1)C(C)(C)COC(=O)c1ccccc1 (stereo not given)
A. label 0

Q. Check the results log: what was the call for CC1CC(O)CC(C)(C)C1 (stereo not given) ?
A. label 0

Q. I'd appreciate the recorded outcome for CCOC(=O)c1ccccc1OC from this test.
A. label 0

Q. // outcome(item) with item = CCCOCCOCCO
A. label 0

Q. Record request — test call for CN(C(=O)C(Cl)Cl)c1ccc(OC(=O)c2ccco2)cc1
A. label 0

Q. Hey, what did the test say about CCC(C(=O)OCCOCCN(CC)CC)c1ccccc1 (stereo not given) ?
A. label 0

Q. Which outcome did this test record for the molecule O=C(C(=O)c1ccccc1)c1ccccc1 ?
A. label 0

Q. Field: outcome | Entry: C1COCO1
A. label 0

Q. Tell me the assay call for CC(=O)Nc1ccc(N)cc1 please.
A. label 0

Q. Outcome? Cc1cnc(C)c(C)n1
A. label 0

Q. Identify the outcome logged in this assay for the molecule shown: CCC(C(=O)OCCN(CC)CC)c1ccccc1 (stereo not given)
A. label 0

Q. What outcome does the record of this test show for Nc1ccc(Cl)cc1[N+](=O)[O-] ?
A. label 0

Q. // outcome(item) with item = CC(C)=CC=O
A. label 0

Q. I would be grateful if you could indicate the recorded call for CC1(C)C(=O)N(Br)C(=O)N1Cl .
A. label 0

Q. Could you kindly confirm the outcome this assay logged for CCCOc1ccc(S(=O)(=O)N2CCN(CC)CC2)cc1-c1nc2c(CC)n(Cc3ccccn3)nc2c(=O)[nH]1 ?
A. label 0

Q. # lookup: test call for CC1=C(C=O)C(C)(C)CCC1
A. label 0

Q. Hello, I am checking results. What call was entered for CCCCCCCCCCCC(=O)[O][Sn]([CH2]CCC)([CH2]CCC)[O]C(=O)CCCCCCCCCCC ?
A. label 1

Q. Outcome? C=CC(=O)NCOCC(C)C
A. label 0

Q. Hi team, can someone confirm the assay call for CCc1c2c(nc3ccc(OC(=O)N4CCC(N5CCCCC5)CC4)cc13)-c1cc3c(c(=O)n1C2)COC(=O)[C@]3(O)CC ?
A. label 0

Q. Which outcome did this test record for the molecule CC1=CC(O)CC(C)(C)C1 (stereo not given) ?
A. label 0

Q. Which outcome was entered for the molecule CCCCC(=O)O[C@]1(C(=O)CO)[C@@H](C)C[C@H]2[C@@H]3CCC4=CC(=O)C=C[C@]4(C)[C@@]3(F)[C@@H](O)C[C@@]21C in this test?
A. label 0

Q. Kindly provide the recorded test outcome for the following molecule: CN1Cc2cc(C(=O)N3CCC(C4CCNCC4)CC3)ccc2N[C@@H](CC(=O)O)C1=O
A. label 0

Q. Test call, this molecule: O=C(O)Cc1ccc(-c2ccccc2)cc1
A. label 0

Q. Could you please tell me the result logged for O=C(O)c1ccc(CO)o1 in this assay?
A. label 0

Q. // param item: CCCCCCCC/C=C\CCCCCCCC(=O)OC ; yields the recorded call
A. label 0

Q. Recorded call for Nc1ccc(S(=O)(=O)O)cc1 ?
A. label 0

Q. Hi, sorry to bother you, what did the test record for Nc1ccc(C(=O)OCCCOC(=O)c2ccc(N)cc2)cc1 ?
A. label 0

Q. # fetch the recorded call for COCCOC(=O)C1=C(C)NC(C)=C(C(=O)OC/C=C/c2ccccc2)C1c1cccc([N+](=O)[O-])c1 (stereo not given) here
A. label 0

Q. Write down the call the test reported for this molecule. Item: Brc1cc(-c2ccc(Br)c(Br)c2Br)cc(Br)c1Br
A. label 0

Q. Dear all, I need the recorded test outcome for COC(=O)c1cc(Cl)ccc1NS(=O)(=O)C(F)(F)F , thank you.
A. label 0
